From: patent US10167272B2

EC50: recorded values
- target: human muscarinic M1 receptor (Homo sapiens, UniProt P11229)
- Sequence (P11229 whole entry): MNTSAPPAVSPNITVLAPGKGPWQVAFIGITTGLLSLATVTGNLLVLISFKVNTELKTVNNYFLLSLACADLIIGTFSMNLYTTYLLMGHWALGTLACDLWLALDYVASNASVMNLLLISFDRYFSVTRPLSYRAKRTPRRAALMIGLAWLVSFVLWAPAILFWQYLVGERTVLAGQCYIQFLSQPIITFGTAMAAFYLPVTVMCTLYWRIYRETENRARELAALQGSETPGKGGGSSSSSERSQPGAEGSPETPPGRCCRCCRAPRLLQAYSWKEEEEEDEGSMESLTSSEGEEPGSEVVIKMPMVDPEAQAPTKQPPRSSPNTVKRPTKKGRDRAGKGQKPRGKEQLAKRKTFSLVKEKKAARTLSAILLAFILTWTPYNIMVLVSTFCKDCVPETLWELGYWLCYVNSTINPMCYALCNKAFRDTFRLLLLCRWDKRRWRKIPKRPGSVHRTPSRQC
- assay_notes: Alphascreen Surefire phospho-ERK1/2 functional assay, M1
- Format: cell-based
- assay_context: CHO cells stably expressing human M1; phospho-ERK1/2; read-out: pEC50 M1 (converted)

# compound, EC50
data = [
    ("CCOC(=O)N1CCC2(CC(N3CCC(N(CC(C)(C)OC)C(C)=O)CC3)C2)C1 (single isomer, unassigned) [2-29 Isomer 1]", "> 20000 nM"),
    ("CCOC(=O)N1CCC2(CC(N3CCC(N(CC(C)(C)OC)C(C)=O)CC3)C2)C1 (single isomer, unassigned) [2-29 Isomer 2]", "200 nM"),
    ("CCOC(=O)N1CCC2(CC(N3CCC(N(CC)C(=O)OC)CC3)C2)C1 (single isomer, unassigned) [2-39 Isomer 2]", "316 nM"),
    ("CCOC(=O)N1CCC2(CC(N3CCC(N(CC(F)(F)F)C4CC4)CC3)C2)C1 (single isomer, unassigned) [2-48 Isomer 2]", "39.8 nM"),
]
